Listed here: items and their measured inhibition at 1 µg/mL.
tested on: NO production of LPS-induced RAW 264.7 cells; assay: Inhibition of NO production in LPS-induced RAW 264.7 cells (Griess reagent); type: cell-based, murine; settings: Mus musculus, RAW264.7, 1 μg/mL, mean ± SD, read-out: %Inhibition of LPS-induced nitric oxide release
Kindly provide the numeric value in % only, without the unit symbol.

compound: CCC(=O)c1cc(OC)c(OC)cc1O
target-entity: NO production of LPS-induced RAW 264.7 cells
metric-name: inhibition at 1 µg/mL
result: 2.64
//
compound: CCC(=O)c1cc(OC)c(OC)c(OC)c1
target-entity: NO production of LPS-induced RAW 264.7 cells
metric-name: inhibition at 1 µg/mL
result: 11.1
//
compound: CCC(=O)c1ccc(OC)c(OC)c1
target-entity: NO production of LPS-induced RAW 264.7 cells
metric-name: inhibition at 1 µg/mL
result: 3.91

Next compound, inhibition at 1 µg/mL to be filled in.
Data request: Recorded inhibition at 1 µg/mL for C[C@]12C=CC(=O)C=C1CC[C@@H]1[C@@H]2[C@@H](O)C[C@@]2(C)[C@H]1CC[C@]2(O)C(=O)CO [Prednisolone, reference compound] , please?
Data returned: 69.9

* * *

We begin with a simple list: items and their reported IC50.
tested on: β-hexosaminidase released from RBL-2H3 cells; assay: Inhibition of β-hexosaminidase release from IgE-sensitized, DNP-BSA-stimulated RBL-2H3 cells (anti-allergic activity); type: cell-based, rat; settings: Rattus norvegicus, mean ± SD, triplicate
Could you give the number and then its unit, please?

Known IC50 results, listed for orientation:
compound: CN(C)CCC(c1ccc(Cl)cc1)c1ccccn1 (stereo not shown) [Chlorpheniramine, reference compound]
IC50: 17.7 µg/mL
--
compound: CCC(=O)c1cc(OC)c(OC)cc1O
IC50: 44.4 µg/mL
--
compound: CCC(=O)c1ccc(OC)c(OC)c1
IC50: 21.2 µg/mL

Please examine the following record next.
Data request: What value of IC50 has been reported for the following compound? CCC(=O)c1cc(OC)c(OC)c(OC)c1
Data returned: 26.2 µg/mL

* * *

System: NO production of LPS-induced RAW 264.7 cells
Assay: Inhibition of NO production in LPS-induced RAW 264.7 cells (Griess reagent)
Assay type: cell-based, murine
Details: Mus musculus, RAW264.7, mean ± SD, triplicate, read-out: IC50, LPS-induced nitric oxide release
Description: The inhibitory activity of crude extracts and isolated compounds on NO production of LPS-induced RAW 264.7 cells was investigated according to a previously reported method. […] The accumulated NO released from the LPS-induced RAW 264.7 cells was determined by using Griess’s reagent (1% sulfanilamide and 0.1% N-(1- naphthyl) ethylenediamine dihydrochloride in 2.5% phosphoric acid). […] The optical density of reaction was measured at 570 nm. […]
metric-name: IC50

molecule: CCC(=O)c1cc(OC)c(OC)cc1O
IC50: > 50 µg/mL

Data request: // returns reported IC50 for input CCC(=O)c1cc(OC)c(OC)c(OC)c1
Data returned: 33.6 µg/mL

Data request: Please report the recorded IC50 for CCC(=O)c1ccc(OC)c(OC)c1 .
Data returned: 40.4 µg/mL

Data request: IC50 for C[C@]12C=CC(=O)C=C1CC[C@@H]1[C@@H]2[C@@H](O)C[C@@]2(C)[C@H]1CC[C@]2(O)C(=O)CO [Prednisolone, reference compound] ?
Data returned: 0.11 µg/mL

* * *

test: Viability of LPS-treated RAW 264.7 cells (MTT); assay type: cell-based, murine; conditions: mouse, 1 μg/mL
A collection of compounds and their measured viability at 1 μg/mL
State just the number; it will be interpreted in %.

# example entries with known answers
compound: C[C@]12C=CC(=O)C=C1CC[C@@H]1[C@@H]2[C@@H](O)C[C@@]2(C)[C@H]1CC[C@]2(O)C(=O)CO [Prednisolone, reference compound]
viability at 1 μg/mL / %: 89.5
--
compound: CCC(=O)c1ccc(OC)c(OC)c1
viability at 1 μg/mL / %: 89.7
--
compound: CCC(=O)c1cc(OC)c(OC)c(OC)c1
viability at 1 μg/mL / %: 88.8

Now consider a different compound.
Data request: // viability at 1 μg/mL lookup, key: CCC(=O)c1cc(OC)c(OC)cc1O
Data returned: 97

* * *

test system: β-hexosaminidase released from RBL-2H3 cells; experiment: Inhibition of β-hexosaminidase release from IgE-sensitized, DNP-BSA-stimulated RBL-2H3 cells (anti-allergic activity); assay type: cell-based, rat; conditions: Rattus norvegicus, 1 μg/ml, mean ± SD, triplicate
inhibition at 1 µg/mL overview
# output: bare number, implied unit %

Study these solved cases before continuing.
molecule: CCC(=O)c1cc(OC)c(OC)cc1O
units: %
inhibition at 1 µg/mL: 8.52
--
molecule: CCC(=O)c1cc(OC)c(OC)c(OC)c1
units: %
inhibition at 1 µg/mL: 15.1
--
molecule: CN(C)CCC(c1ccc(Cl)cc1)c1ccccn1 (stereo not shown) [Chlorpheniramine, reference compound]
units: %
inhibition at 1 µg/mL: 14.9

Next item in the queue.
Data request: What reported inhibition at 1 µg/mL corresponds to CCC(=O)c1ccc(OC)c(OC)c1 on β-hexosaminidase released from RBL-2H3 cells?
Data returned: 4.84

* * *

assay: Viability of LPS-treated RAW 264.7 cells (MTT); assay type: cell-based, murine; settings: mouse, 0.1 μg/mL
metric-name: viability at 0.1 μg/mL

compound: CCC(=O)c1ccc(OC)c(OC)c1 [Compound 1, 1-(3′,4′-dimethoxyphenyl) propan-1-one]
viability at 0.1 μg/mL: 84.7%
--
compound: CCC(=O)c1cc(OC)c(OC)cc1O [Compound 3]
viability at 0.1 μg/mL: 102%
--
compound: CCC(=O)c1cc(OC)c(OC)c(OC)c1 [Compound 2]
viability at 0.1 μg/mL: 94.5%

Data request: Please report the recorded viability at 0.1 μg/mL for C[C@]12C=CC(=O)C=C1CC[C@@H]1[C@@H]2[C@@H](O)C[C@@]2(C)[C@H]1CC[C@]2(O)C(=O)CO [Prednisolone, reference compound] .
Data returned: 84.3%

* * *

Documented viability at 10 μg/mL across a set of compounds
Test: Viability of LPS-treated RAW 264.7 cells (MTT)
Format: cell-based, murine
Conditions: mouse, 10 μg/mL
Experimental: The viability of the LPS treated RAW 264.7 cells were colorimetrically determined by using 3-(4, 5-dimethyl-2-thiazolyl)-2, 5-diphenyl-2H-tetrazolium bromide (MTT) method. MTT solution (10 μL) was added into each well and the plate was incubated for 2 h. The remained formazan crystal in each well, after removing the medium, was dissolved by 0.04 M HCl in isopropanol (100 μL). The optical density was measured by using microplate reader at wavelength 570 nm.
Express it in %; write the number only.

Worked examples, 2 compounds total:
compound: C[C@]12C=CC(=O)C=C1CC[C@@H]1[C@@H]2[C@@H](O)C[C@@]2(C)[C@H]1CC[C@]2(O)C(=O)CO [Prednisolone, reference compound]
units: %
viability at 10 μg/mL: 80.8

compound: CCC(=O)c1cc(OC)c(OC)c(OC)c1 [Compound 2]
units: %
viability at 10 μg/mL: 80.8

Data request: # lookup: viability at 10 μg/mL of CCC(=O)c1cc(OC)c(OC)cc1O [Compound 3]
Data returned: 97.3

Data request: Query (compound): CCC(=O)c1ccc(OC)c(OC)c1 [Compound 1, 1-(3′,4′-dimethoxyphenyl) propan-1-one] ; field requested: viability at 10 μg/mL
Data returned: 84.7

* * *

experiment: Cytotoxic activity by sulforhodamine B (SRB) assay, normal cells HaCaT; assay type: cell-based; conditions: human, 72 h exposure, 72 h recovery
# IC50 at 72 h per entry

Known results for compounds:
compound: CCC(=O)c1cc(OC)c(OC)cc1O
metric-name: IC50 at 72 h
result: > 100 µg/mL
--
compound: CCC(=O)c1cc(OC)c(OC)c(OC)c1
metric-name: IC50 at 72 h
result: > 100 µg/mL
--
compound: CCC(=O)c1ccc(OC)c(OC)c1
metric-name: IC50 at 72 h
result: > 100 µg/mL

Please find the next compound below.
Data request: Dear colleague, I am looking for the recorded IC50 at 72 h of the following compound: CC[C@]1(O)C[C@H]2CN(CCc3c([nH]c4ccccc34)[C@@](C(=O)OC)(c3cc4c(cc3OC)N(C=O)[C@H]3[C@@](O)(C(=O)OC)[C@H](OC(C)=O)[C@]5(CC)C=CCN6CC[C@]43[C@@H]65)C2)C1 [Vincristine, reference compound]
Data returned: < 0.0001 µg/mL
